Source of measurements: the supplement of paper PMC9112550

# Tested on: Escherichia coli TOP10
# Experiment: shrunken log2 fold change of peptide-encoding DNA abundance (4.5 h post-induction vs induction); higher = less antimicrobial activity (less host growth inhibition)
# Experimental context: time post-induction: 4.5 h; library: site-saturation at positions 5, 18, 19, 20
Decision: shrunken log2 fold change >= -0.1 yields T, all other cases yield F.

See these solved cases before continuing.
>  <Macromolecule sequence>
RRIRERPPRLPRPRPRPSFNPRP

>  <Qualitative label>
F

$$$$
>  <Macromolecule sequence>
RRIRERPPRLPRPRPRPPKWPRP

>  <Qualitative label>
F

$$$$
>  <Macromolecule sequence>
RRIRCRPPRLPRPRPRPTGSPRP

>  <Qualitative label>
T

$$$$

Identify whether the reported shrunken log2 fold change of the following sequence is -0.1 or greater: `RRIRNRPPRLPRPRPRPANWPRP`
T

Could you please find out whether `RRIRFRPPRLPRPRPRPETTPRP` has shrunken log2 fold change that meets -0.1 or exceeds it?
T

Could you verify whether the entry `RRIRWRPPRLPRPRPRPCFEPRP` shows shrunken log2 fold change of no less than -0.1?
T

Quick check, shrunken log2 fold change >= -0.1? `RRIRYRPPRLPRPRPRPCCTPRP`
F

Evaluate `RRIRTRPPRLPRPRPRPSSAPRP` : shrunken log2 fold change at minimum -0.1?
F

Does the sequence `RRIRWRPPRLPRPRPRPIFMPRP` have recorded shrunken log2 fold change that is -0.1 or more?
T

Item `RRIRHRPPRLPRPRPRPEKVPRP` with shrunken log2 fold change of -0.1 or above?
T

Determine whether measured shrunken log2 fold change meets or exceeds -0.1 for `RRIRHRPPRLPRPRPRPDDRPRP`
F

Confirm if shrunken log2 fold change reported for the sequence `RRIRARPPRLPRPRPRPCINPRP` is -0.1 or above.
F

Does the sequence `RRIRGRPPRLPRPRPRPDYVPRP` have recorded shrunken log2 fold change that is -0.1 or more?
T

Hi team, for `RRIRARPPRLPRPRPRPYWMPRP` , is the recorded shrunken log2 fold change at or above -0.1?
F

Is the recorded value of shrunken log2 fold change equal to or greater than -0.1 for this sequence? `RRIRQRPPRLPRPRPRPYFAPRP`
F

Check the entry `RRIRPRPPRLPRPRPRPHDMPRP` : does shrunken log2 fold change equal or exceed -0.1?
F

Given `RRIRMRPPRLPRPRPRPRQFPRP` , state whether its shrunken log2 fold change is at least -0.1.
T

State whether the measured shrunken log2 fold change reaches -0.1, counting equality as reaching it, for `RRIRVRPPRLPRPRPRPMAAPRP`
T

###

# Test system: Escherichia coli TOP10;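 note: peptides expressed intracellularly from a pBAD plasmid library in pooled LB shake-flask culture, induced with 0.3% L-arabinose, DNA abundance read by NGS, three biological replicates, DESeq2 with apeglm shrinkage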
# Experiment: shrunken log2 fold change of peptide-encoding DNA abundance (4.5 h post-induction vs induction); higher = less antimicrobial activity (less host growth inhibition)
# Experimental context: time post-induction: 4.5 h; library: site-saturation at positions 5, 18, 19, 20
shrunken log2 fold change overview
Returns: the value as a bare number; no unit string appended.

>  <Macromolecule sequence>
RRIRIRPPRLPRPRPRPRGVPRP

>  <Metric>
shrunken log2 fold change

>  <Readout number>
0.0556

$$$$

shrunken log2 fold change for `RRIRQRPPRLPRPRPRPQDPPRP` ?
-0.239

// returns reported shrunken log2 fold change for input `RRIRVRPPRLPRPRPRPTSQPRP`
0.00273

Given the entry `RRIRMRPPRLPRPRPRPNINPRP` , report its measured shrunken log2 fold change.
-0.356

So what does the record say about shrunken log2 fold change for `RRIRYRPPRLPRPRPRPDAIPRP` ?
-0.224

GET /values?readout=shrunken log2 fold change&item= `RRIRIRPPRLPRPRPRPQFRPRP`
-0.234

Query: shrunken log2 fold change; subject: `RRIRQRPPRLPRPRPRPCSRPRP`
0.0758

If you can, please state the reported shrunken log2 fold change value of `RRIRERPPRLPRPRPRPNFMPRP` .
-0.178

# shrunken log2 fold change lookup, item `RRIRFRPPRLPRPRPRPAEVPRP`
-0.127

Please report the recorded shrunken log2 fold change for `RRIRERPPRLPRPRPRPISVPRP` .
-0.137

# shrunken log2 fold change lookup, item `RRIRYRPPRLPRPRPRPDGCPRP`
-0.029

Give its shrunken log2 fold change value. Item: `RRIRYRPPRLPRPRPRPNTSPRP`
-0.423
